Please respond with reported pIC50 for every item in the list.
System: SKOV3 (Ovarian adenocarcinoma)
Experiment: In vitro cytotoxicity, microculture tetrazolium (MTT) assay, SKOV3
Type: cell-based, Human
Conditions: Homo sapiens, SK-OV-3; SKOV3 ovarian adenocarcinoma; 48 h with compound, further 48 h, MTT; Table 1
Where a name gives a salt, the structure may show the parent alone.
Schema: pIC50 number; meaning minus log10 of the concentration expressed in molar units.

Retrieve pIC50 measured for CC(C)OC(=O)[C@@H]1CC2=C(C(=O)c3ccccc3C2=O)[C@@H](O[C@H]2C[C@H](NC(=O)C(F)(F)F)[C@H](O)[C@H](C)O2)O1 [BCH2122] and print it.
6.43

Retrieve pIC50 measured for COC1OC(C(=O)NCCN2CCOCC2)=CC2=C1C(=O)c1ccccc1C2=O (stereo not drawn) [BCH2170] and print it.
6.59

Retrieve pIC50 measured for CC[C@H]1CC2=C(C(=O)c3ccccc3C2=O)[C@H](O[C@H]2C[C@H](N)[C@H](O)[C@H](C)O2)O1 [BCH2021, hydrochloride] and print it.
4.91

Retrieve pIC50 measured for CC(=O)C1CC2=C(C(=O)c3ccccc3C2=O)C(O[C@H]2C[C@H](O)[C@H](O)[C@H](C)O2)O1 (mixture of isomers) [BCH2117] and print it.
8.02

Retrieve pIC50 measured for COC(=O)[C@]1(C)CC2=C(C(=O)c3ccccc3C2=O)[C@@H](O[C@H]2C[C@H](NC(=O)C(F)(F)F)[C@H](O)[C@H](C)O2)O1 [BCH2077] and print it.
5.71

Retrieve pIC50 measured for C=CCC1CC2=C(C(=O)c3ccccc3C2=O)C(OC2CC(NC(=O)C(F)(F)F)C(O)C(C)O2)O1 (stereo not drawn) [BCH1648] and print it.
7.28

Retrieve pIC50 measured for CC(=O)O[C@@H]1[C@H](C)O[C@@H](OC2OC(C(C)=O)CC3=C2C(=O)c2ccccc2C3=O)C[C@@H]1OC(C)=O (mixture of isomers) [BCH2118] and print it.
6.92

Retrieve pIC50 measured for CC(=O)O[C@@H]1[C@H](C)O[C@@H](O[C@H]2O[C@H](C(C)=O)CC3=C2C(=O)c2ccccc2C3=O)C(Br)[C@@H]1OC(C)=O (stereo partly drawn) [BCH2100] and print it.
5.57

Retrieve pIC50 measured for COC(=O)[C@@]1(C)CC2=C(C(=O)c3ccccc3C2=O)[C@H](O[C@H]2C[C@H](NC(=O)C(F)(F)F)[C@H](O)[C@H](C)O2)O1 [BCH2076] and print it.
5.84

Retrieve pIC50 measured for CC(=O)C1CC2=C(C(=O)c3ccccc3C2=O)C(OCC2CCCCN2)O1 (racemic) [BCH2069, hydrochloride] and print it.
7.31

Retrieve pIC50 measured for CO[C@@H]1O[C@@H](C(=O)Nc2ccccc2)CC2=C1C(=O)c1ccccc1C2=O (relative stereo) [BCH2041] and print it.
5.67

Retrieve pIC50 measured for CC(=O)[C@@]1(C)CC2=C(C(=O)c3ccccc3C2=O)[C@H](O[C@H]2C[C@H](NC(=O)C(F)(F)F)[C@H](O)[C@H](C)O2)O1 [BCH2082] and print it.
5.74

Retrieve pIC50 measured for CC[C@H]1CC2=C(C(=O)c3ccccc3C2=O)[C@H](NC(C)=O)O1 (relative stereo) [BCH2027] and print it.
5.15

Retrieve pIC50 measured for CC(=O)[C@H]1CC2=C(C(=O)c3ccc(O)cc3C2=O)[C@H](O[C@H]2C[C@H](NC(=O)C(F)(F)F)[C@H](O)[C@H](C)O2)O1 [BCH1180] and print it.
6.07

Retrieve pIC50 measured for COC1OC(C(=O)Nc2ccccc2)=CC2=C1C(=O)c1ccccc1C2=O (stereo not drawn) [BCH2044] and print it.
5.84

Retrieve pIC50 measured for COC[C@@H]1CC2=C(C(=O)c3ccccc3C2=O)[C@@H](O[C@H]2C[C@H](NC(=O)C(F)(F)F)[C@H](O)[C@H](C)O2)O1 [BCH1691] and print it.
5.05

Retrieve pIC50 measured for CC[C@@H]1CC2=C(C(=O)c3ccccc3C2=O)[C@@H](O[C@H]2C[C@H](NC(=O)C(F)(F)F)[C@H](O)[C@H](C)O2)O1 [BCH2026] and print it.
4.82

Each recorded value in this set is attributed to patent US5606037A.
